- System: U2OS
- procedureText: Multiplex assay against U2OS
- Format: toxicity, cell-based
- setupConditions: human, 24 h, 1 µM, compound concentration 1 uM, replicate 1
Non-standard residues stand in square brackets, D forms with d. Residues, ends and D or L forms follow the SMILES beside them.
Response field class: enum, chosen by comparing Population Healthy Nuclei (%) against lower level (below 60%), middle level (60% to below 70%), upper level (70% or more)

Qu. Lab note: which band did CN(C)C/C=C/C(=O)Nc1ccc(C(=O)N2CCCC(Nc3ncc(Cl)c(-c4c[nH]c5ccccc45)n3)C2)cc1 (centres undefined) land in?
Ans. lower level

Qu. For the record COc1cc2nc(N3CCN(C(=O)COc4c(OC)cccc4C(C)C)CC3)nc(N)c2cc1OC.Cl.Cl , report the class its Population Healthy Nuclei (%) corresponds to.
Ans. middle level

Qu. Into which category would you place COc1ccc2[nH]c(I)c(CCNC(C)=O)c2c1 [IODOMELATONIN] ?
Ans. upper level

Qu. Bin? COc1ccc2c(c1OCc1ccccc1)C[C@@H](C(=O)O)N(C(=O)C(c1ccccc1)c1ccccc1)C2 [OLODANRIGAN]
Ans. middle level

Qu. # classify by Population Healthy Nuclei (%) band: CN1CCN2c3ccccc3Cc3ccccc3C2C1.Cl (centres undefined) [MIANSERIN HYDROCHLORIDE]
Ans. lower level

Qu. Kindly state the category for this molecule: CCc1nn2c(C)cc(C)nc2c1Cc1ccc(-c2nnc(C3CCNCC3)o2)cc1
Ans. middle level

Qu. # classify by Population Healthy Nuclei (%) band: OCCCNc1cc(-c2ccnc(Nc3cccc(Cl)c3)n2)ccn1
Ans. lower level

Qu. Tag the class for Cn1cc(C(=O)OCC2CCN(CCNS(C)(=O)=O)CC2)c2ccccc21
Ans. middle level

Qu. Class? Entry: Cc1c(Cc2ccc3ccccc3n2)c2cc(F)ccc2n1CC(=O)O [TIMAPIPRANT]
Ans. upper level

Qu. State the band of Cl.Cl.OCCOCCN1CCN(C(c2ccccc2)c2ccc(Cl)cc2)CC1 (centres undefined) [HYDROXYZINE HYDROCHLORIDE]
Ans. middle level

Qu. Kindly identify the class of COc1c(Nc2ccc(S(C)(=O)=O)nc2C)ncnc1OC1CCN(C(=O)OC(C)C)CC1 [ADP-597] .
Ans. middle level

Qu. Kindly identify the class of COC(c1ccccc1)(c1ccccc1)[C@H](Oc1nc(C)cc(C)n1)C(=O)O [AMBRISENTAN] .
Ans. middle level

Qu. Form: Item = CC(C)C[C@@H]1NC(=O)[C@@H](C(C)C)NC(=O)[C@@H]2CCCN2C(=O)[C@@H](CC(=O)O)NC(=O)[C@@H](Cc2c[nH]c3ccccc23)NC1=O [BQ-123] (cyclo(L[dW][dD]P[dV])) ; Class = ?
Ans. upper level

Qu. Class? Entry: CN1CCC(C(=O)c2cccc(NC(=O)c3c(F)cc(F)cc3F)n2)CC1
Ans. middle level

Qu. Each molecule maps to one class by Population Healthy Nuclei (%). Which class for CCC(=O)OCC(=O)[C@@]1(OC(=O)CC)[C@@H](C)C[C@H]2[C@@H]3CCC4=CC(=O)C=C[C@]4(C)[C@@]3(Cl)[C@@H](O)C[C@@]21C [BECLOMETHASONE DIPROPIONATE] ?
Ans. middle level

Qu. Exam item: assign COc1cc(Nc2ncc3c(n2)-c2ccc(Cl)cc2C(c2c(F)cccc2OC)=NC3)ccc1C(=O)O [ALISERTIB] to the correct category.
Ans. middle level

Qu. Assign a category based on measured Population Healthy Nuclei (%) for COc1cc(C(=O)N2CC[C@@H](O)[C@@H](N)C2)cc2nc(-c3cc4ccccc4n3CC3CC3)n(C)c12.Cl and give only the class name.
Ans. lower level

Qu. Field: class (Population Healthy Nuclei (%)) — entry: C=CCN1C[C@H](C(=O)N(CCCN(C)C)C(=O)NCC)C[C@@H]2c3cccc4[nH]cc(c34)C[C@H]21 [CABERGOLINE]
Ans. upper level

Qu. Quick check: band for CCCCCCNC(=O)Nc1ccc(S(=O)(=O)Nc2ccc(CCNC[C@H](O)COc3ccc(O)cc3)cc2)cc1 [L-755507]
Ans. middle level

Qu. Given CN1CCN(c2ccc(Nc3c4ccccc4nc4ccccc34)cc2)CC1.Cl.Cl.O , name the class its Population Healthy Nuclei (%) places it in.
Ans. middle level

Qu. Which class holds O=c1nc2[nH]c3ccccc3nc-2c(=O)[nH]1 [ALLOXAZINE] ?
Ans. middle level

Qu. Which Population Healthy Nuclei (%) band matches Cc1cc(O)c(-c2ccc([C@@H](C)CN(C)C)cc2)c2c1[nH]c(=O)c1sccc12 ?
Ans. lower level

Qu. Lab log: COCCn1c(C)c(C)s/c1=N\C(=O)C1C(C)(C)C1(C)C — assign Population Healthy Nuclei (%) category
Ans. upper level

Qu. // return the class label for Cc1ccc(OCC(O)C(C)NC(C)C)c2c1CCC2.Cl (centres undefined)
Ans. upper level
